- Tested on: human Factor 7 mRNA
- Protocol: Dose-dependent antisense inhibition of human Factor 7 in HepB3 cells, lipofectin
- Format: cell-based
- Test parameters: Table 3, 3.125 nM, approximately 16 hours
Strand notation (5' to 3'): a small letter for the sugar, then the base; units joined by * are phosphorothioate-linked, units joined directly phosphodiester-linked; [ ] holds rarer units or linkages, { } end groups; capitals alone tell only the bases. e = 2'-O-(2-methoxyethyl) (MOE); [5mC] = 5-methylcytosine; d = 2'-deoxy (DNA)
Returns one of yes or no; yes when percent inhibition of Factor 7 is >= 40%.

Some entries whose results are on file:
Substance	Assigned class
407936 (antisense eG*eG*e[5mC]*eA*eT*dT*d[5mC]*dG*d[5mC]*d[5mC]*dA*d[5mC]*d[5mC]*dA*dT*eG*e[5mC]*eA*eT*eG) [compound 407936]	yes
407900 (antisense e[5mC]*e[5mC]*e[5mC]*e[5mC]*eA*d[5mC]*dA*dA*dT*dT*d[5mC]*dG*dG*d[5mC]*d[5mC]*eT*eT*eG*eG*eG) [compound 407900]	yes
407606 (antisense e[5mC]*eT*eG*eG*eT*d[5mC]*d[5mC]*dT*dT*dG*d[5mC]*dA*dG*dG*dA*eG*e[5mC]*e[5mC]*e[5mC]*e[5mC]) [compound 407606]	no

QUERY: Is it the case that 407641 (antisense e[5mC]*e[5mC]*eT*eG*eA*dG*dG*d[5mC]*d[5mC]*dA*dG*d[5mC]*dA*dG*dA*eT*e[5mC]*eA*e[5mC]*eG) [compound 407641] has percent inhibition of Factor 7 reaching or exceeding 40%?
RESULT: yes

QUERY: Could you verify whether the entry 407643 (antisense e[5mC]*eA*e[5mC]*eA*e[5mC]*dA*dT*dG*dG*dA*dG*dT*d[5mC]*dA*dG*e[5mC]*eA*eT*e[5mC]*eG) [compound 407643] shows percent inhibition of Factor 7 of no less than 40%?
RESULT: no

QUERY: Decide: is the reported value of percent inhibition of Factor 7 for 407594 (antisense e[5mC]*e[5mC]*eT*eG*e[5mC]*dA*dG*d[5mC]*d[5mC]*dA*dG*dG*d[5mC]*dA*dG*e[5mC]*e[5mC]*e[5mC]*eT*eG) [compound 407594] equal to or greater than 40%?
RESULT: no

QUERY: Decide: is the reported value of percent inhibition of Factor 7 for 407935 (antisense eA*eT*eG*e[5mC]*eA*dT*dG*dG*dT*dG*dA*dT*dG*d[5mC]*dT*eT*e[5mC]*eT*eG*eA) [compound 407935] equal to or greater than 40%?
RESULT: yes

QUERY: Quick check, percent inhibition of Factor 7 >= 40%? 407910 (antisense eA*eG*eT*e[5mC]*e[5mC]*dT*dT*dG*d[5mC]*dT*dG*d[5mC]*d[5mC]*dA*dT*e[5mC]*e[5mC]*eG*eA*eG) [compound 407910]
RESULT: no

QUERY: Threshold query (percent inhibition of Factor 7 >= 40%) on 407939 (antisense eT*eG*e[5mC]*eA*eG*d[5mC]*d[5mC]*d[5mC]*dG*dG*d[5mC]*dA*d[5mC]*d[5mC]*d[5mC]*eA*eG*e[5mC]*eG*eA) [compound 407939]
RESULT: yes
